System tested: Gag-Pol polyprotein (Human immunodeficiency virus type 1 group M subtype B (isolate NY5), UniProt P12497)
Protocol summary: HIV-1 RT Inhibition Assay
Condition parameters: 37 °C
Quantity: pIC50
Just so you know, pIC50 here is -log10 of the concentration in molar units; reply with that number alone.

Please review the following examples before continuing.
-- ask Read the entry NS(=O)(=O)c1ccc(NC(=O)CSc2nc3ncccc3n2-c2ccc(C3CC3)c3ccccc23)c(Br)c1 and write its reported pIC50.
-- reply 5.82

-- ask Read the entry Cc1cc(C#N)cc(C)c1Oc1nc(Nc2ccc(C#N)cc2)nc(N)c1Br and write its reported pIC50.
-- reply 6.43

---
-- ask Read the entry Cc1ccnc2c1NC(=O)c1cccnc1N2C1CC1 [BI-RG-587] and write its reported pIC50.
-- reply 6.16
